meta.source: the supplement of paper PMC9170038

- System: K4 kissing-loop RNA reporter;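 further: bound reporter read as fluorescence of individual clusters on recovered sequencing chips by microscopy, with normalized cluster intensities fitted with a binding model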
- PROCEDURE_SUMMARY: apparent KD of K4 kissing-loop reporter; higher = weaker reporter binding
- EXPERIMENTAL_CONTEXT: Eterna round: R107; input ligand: none
MEASUREMENT_LABEL: apparent KD of K4 kissing-loop reporter (nM)
Numbers only, in nM.

Guide cases for apparent KD of K4 kissing-loop reporter, answers given:
UUCCUCAUGGUAGUGAUGUUGCCGCCCGAUACCAGUCGACGUAUUGACCCUUGGCAGCGGAUCAAGUCCGAUUAAUUUUUUGGUC [theeternabot_sameState_KL_Theo_A_5] | 217
GGAUGGUAGGCGGCCGCCACUAAAACUGAACAAAUAUAAACCAGUGAUGUUGGUAUGAUGAAGUAUAGGACCGGGCCUAGAUAGA [Exclusion - Tryptophan B (Freestyle 1)] | 143
AAAUUUAUAUUAGAUACCAGCAUAUUGAAAGUUUAUUAUGACAAGAGUGAUGUUCUUGUAUGCCCUUGGCAGCUGGUAUGGGUUU [KL-XTheo-B25] | 104
AACCACUCGUUACAUCACUAUCGAGUGGAACGAGGACCGGUACGGCCGCCACUCGAUAAGAUGCAGUGAUGUUGCAUCUAAGAAU [KL-SSTryp-A (BrourdMod)5 #dotplot2 strengthened] | 183
UGAUACCAGACGGCCGCCACUCCCGUAAGUCAAAGACUUACCAAGAGUAUCGUCCAGUGAUGUUGGAGGACCGGGUCUGGUAUCU [FiskerMod 9 - Jieux - Exclusion - Tryptophan B] | 330
UUUAUGAGGUCGGCCGCCACUGGAUUUAUGUUUGUUUCGUCUGGAUCAAAGUGAUGUUUUGAGUCCAGGACCGGGACAUUUGUUA [whbob_Ex_Tryp_B_w40] | 80.5

Go through the list and state apparent KD of K4 kissing-loop reporter for each entry.
1. AUGCUGUCGGCGUUAAAGUAGUAAUGUGAUACCAGAAAUGCUGUGUUCCCUUGGCAGCACAUUCUUACAGACAGUGAUGUUGUCU [theeternabot_exclusion_KL_Theo_A_8]
2. UGGAUUAGGACGGCCGCCACUACGCUGGCAUGAGUGAUGUUCUAAGGCUUGUCAAAGAUCCAGAGUAGGACCGGGUCCAAUGACU [theeternabot_exclusion_KL_Trp_B_38]
3. AGUGGACGUGUUCGGAGUGAUGUUCCGGAUACCAGACACGAAAGUGUCCCUUGGCAGCCGGAGUGAUGUUCCGGCGUUCACUAAA [Omei KL Theo A Exc B v2]

### Response
[391, 275, 538]

Go through the list and state apparent KD of K4 kissing-loop reporter for each entry.
1. AGCUAGUACGCAGGAUAUUGAACAUCAUUUAGUGAGAUCGAGUGAUGUUCGAUCACGACUUCAGUUCGAGAAGGGCGUACUAGCA [#02 K4 FMN B Same State]
2. AUGGUUGUCGUAGGAUAUGUAGGAUAUUCUAAAAUAUGAAGUGAUGUUUCUAUAAUAAGAAGAAGGACAGAAGGACGAUAACCAC [FmnBS 1 - SaraBot transfer #DoubleAptamer]
3. GCCGUACGCAUGGAUACCAGCAGAACUGCCCUCCCAGUGAUGUUGGGAGGAUCUUUCCUAUGCCCUUGGCAGCCAUGCGUACGGC

### Response
[931, 114, 126]

Go through the list and state apparent KD of K4 kissing-loop reporter for each entry.
1. GCAAACCUCAGUGAUGUUGAGUAAUCGGAAGGAGCGCGUGAAAACGCAGGUAGGUCGCCGAUACAUGAAGUAUCUUCGUGUUUGC [Arginine A K4 23]
2. CGAGUGAUGUUCGUUUUUUAAUUUUUUUGACAGGAUAUGCGGAAACGCAGAAGGGUCACCUUUGAGUUAAAAGAAUUUAUUUUUU [Ex FMN A 17]
3. AAAUUUAAUAUAUUUAAUUAAUUAUGUGAUACCAGACAUUAAUAAGUCCCUUGGCAGCACAAUGCAGUGAUGUUGCAUAUAAUAA [JR_SSTheophyA_Sub011]

### Response
[354, 295, 73.5]

Go through the list and state apparent KD of K4 kissing-loop reporter for each entry.
1. UGUCAUUGGUCGGCCGCCACUUCAAGGUCAAAGACCAGAGUGAUGUUCUUGCACAAAGUGCUUAGAAGGACCGGGACCGAUGACU [TrypBS 13 #SwitchBubble #K4Middle]
2. AAGCAGUCGCUCGAAGCCAUCGAAGAUGGGCGAGGACCGGUACGGCCGCCACUCGGAGUGAUGUUCCGAGGACUGCAAAAUAAAA [MatMod 5 - Jieux - Exclusion - Tryptophan A]
3. AGGUGGGACGUAGGAUAUCCCUAAUGAUUUACUUCCUGGUUGCUACGCUUCCAGUGAUGUUGGAAGGGAGAAGGACGGGCGAGUU [Riatbive]

### Response
1: 625; 2: 321; 3: 213
